# CC50 listing for each entry below
# System: HepG2 cell line
# experiment_description: In vitro cytotoxicity on the human hepatic HepG2 cell line (MTT, 72 h)
# settings: read-out: HepG2 Cytotoxicity CC50; HepG2, 72 h, MTT
# Description: HepG2 cell line (hepatocarcinoma cell line purchased from ATCC, ref HB-8065) was maintained at 37 °C, 5% CO2 with 90% humidity in MEM supplemented with 10% fetal bovine serum, 1% L-glutamine (200 mM) and penicillin (100 U/mL)/streptomycin ([…]) (complete MEM medium). The tested molecules’ cytotoxicity was assessed according to the method of Mosmann with slight modifications. […] Cell viability was calculated as a percentage of control (cells incubated without compound). […]
A number alone suffices; assume µM.

[
  {
    "compound": "N#CCN1C(=O)S/C(=C\\c2cccc([N+](=O)[O-])c2)C1=O [Compound 14c]",
    "quantitative_readout": 101
  }
]

Quick one: give measured CC50 for COc1cccc2c1C(=O)c1c(O)c3c(c(O)c1C2=O)C[C@@](O)(C(=O)CO)C[C@@H]3O[C@H]1C[C@H](N)[C@H](O)[C@H](C)O1 [Doxorubicin, reference compound] 0.2

---

# Test system: Leishmania infantum promastigotes
# experiment_description: In vitro antileishmanial activity on L. infantum promastigotes (MTT, 72 h)
# Type: cell-based
# settings: Leishmania infantum, L. infantum promastigotes, MTT, read-out: Anti-L. infantum Promastigote Activity EC50
pEC50: −log10 of the molar value.
Fulfilled means recorded pEC50 is 5 or above; Not fulfilled means it is below 5.

Recorded results for 6 compounds are shown here.
[
  {
    "compound": "CCOC(=O)CN1C(=O)S/C(=C\\c2ccccc2)C1=O [Compound 12a]",
    "group": "Not fulfilled"
  },
  {
    "compound": "CCCCCCCCCCCCCCCCOP(=O)([O-])OCC[N+](C)(C)C [Miltefosine, reference compound]",
    "group": "Fulfilled"
  },
  {
    "compound": "CCOC(=O)CN1C(=O)S/C(=C\\c2cccc([N+](=O)[O-])c2)C1=O [Compound 12c]",
    "group": "Fulfilled"
  },
  {
    "compound": "Cc1ccc(NC(=O)CN2C(=O)S/C(=C\\c3ccccc3[N+](=O)[O-])C2=O)cc1 [Compound 24b]",
    "group": "Not fulfilled"
  },
  {
    "compound": "O=C(CN1C(=O)S/C(=C\\c2ccccc2[N+](=O)[O-])C1=O)Nc1ccc(Cl)cc1 [Compound 27b]",
    "group": "Not fulfilled"
  },
  {
    "compound": "N#CCN1C(=O)S/C(=C\\c2cccc([N+](=O)[O-])c2)C1=O [Compound 14c]",
    "group": "Fulfilled"
  }
]

Would you say O=C1NC(=O)/C(=C/c2cccc([N+](=O)[O-])c2)S1 shows pEC50 at minimum 5? Not fulfilled

Would you say COc1cc(/C=C2\SC(=O)N(CC(=O)Nc3ccc(Cl)cc3)C2=O)cc(OC)c1OC [Compound 27e] shows pEC50 at minimum 5? Fulfilled

---

# EC50 listing for each entry below
# Tested on: Leishmania infantum promastigotes
# experiment_description: In vitro antileishmanial activity on L. infantum promastigotes (MTT, 72 h)
# Type: cell-based
# settings: Leishmania infantum, L. infantum promastigotes, MTT, read-out: Anti-L. infantum Promastigote Activity EC50
A number alone suffices; assume µM.

Illustrative cases are given below, each with its answer.
[
  {
    "molecule": "CCOC(=O)CN1C(=O)S/C(=C\\c2ccc([N+](=O)[O-])cc2)C1=O [Compound 12d]",
    "quantitative_readout": 11.6
  },
  {
    "molecule": "O=C(CN1C(=O)S/C(=C\\c2ccc([N+](=O)[O-])cc2)C1=O)Nc1ccc(Cl)cc1 [Compound 27d]",
    "quantitative_readout": 17.3
  },
  {
    "molecule": "COc1ccc(NC(=O)CN2C(=O)S/C(=C\\c3ccccc3[N+](=O)[O-])C2=O)cc1 [Compound 25b]",
    "quantitative_readout": 22.3
  }
]

Quick one: give measured EC50 for NC(=O)CN1C(=O)S/C(=C\c2cccc([N+](=O)[O-])c2)C1=O [Compound 15c] 13.3

Quick one: give measured EC50 for O=C(CN1C(=O)S/C(=C\c2ccccc2[N+](=O)[O-])C1=O)Nc1ccccc1 [Compound 23b] 11.6
